Activity calls are given as the source filed them.
The following compounds have recorded Kd on Serine/threonine-protein kinase NLK (Homo sapiens, UniProt Q9UBE8).
Sequence (Q9UBE8 whole entry): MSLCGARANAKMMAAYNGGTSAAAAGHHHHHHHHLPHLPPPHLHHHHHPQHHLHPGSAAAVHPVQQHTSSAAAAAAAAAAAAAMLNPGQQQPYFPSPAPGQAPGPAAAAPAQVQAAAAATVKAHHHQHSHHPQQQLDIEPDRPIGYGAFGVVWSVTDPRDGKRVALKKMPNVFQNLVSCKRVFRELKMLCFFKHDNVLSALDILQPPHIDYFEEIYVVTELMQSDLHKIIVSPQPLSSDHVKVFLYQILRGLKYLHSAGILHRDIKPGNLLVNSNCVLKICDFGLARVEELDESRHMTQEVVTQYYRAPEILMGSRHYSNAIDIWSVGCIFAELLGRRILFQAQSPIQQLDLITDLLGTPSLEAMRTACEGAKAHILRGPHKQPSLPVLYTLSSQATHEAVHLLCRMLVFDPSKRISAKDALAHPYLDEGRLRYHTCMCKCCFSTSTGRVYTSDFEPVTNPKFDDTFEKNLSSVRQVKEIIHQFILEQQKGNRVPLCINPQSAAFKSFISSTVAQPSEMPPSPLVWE

Some compounds with known Kd results, for comparison:
{"Compound": "CCc1cc2c(cc1N1CCC(N3CCOCC3)CC1)C(C)(C)c1[nH]c3cc(C#N)ccc3c1C2=O [ALECTINIB]", "Readout Label": "Kd", "Reading": "> 30 µM (inactive)"}
{"Compound": "CC(C)(O)CC(=O)NCCn1ccc2ncnc(Nc3ccc(Oc4cccc(C(F)(F)F)c4)c(Cl)c3)c21 [TAK-285]", "Readout Label": "Kd", "Reading": "0.816 µM"}
{"Compound": "C#Cc1cccc(Nc2ncnc3cc4c(cc23)OCCOCCOCCO4)c1 [ICOTINIB]", "Readout Label": "Kd", "Reading": "> 30 µM (inactive)"}

Switching to the query record.
The compound COc1cc2ncnc(Nc3ccc(F)c(Cl)c3)c2cc1NC(=O)/C=C/CN1CCCCC1 [DACOMITINIB ANHYDROUS] on Serine/threonine-protein kinase NLK (Homo sapiens, UniProt Q9UBE8): Kd was > 30 µM (inactive)
